Hello, the source for this data is patent US10842152B2, in case you need it.

tested on: Setaria viridis; test: Herbicidal effect post-emergence; assay type: in vivo; settings: 320 g/ha, visual grading after ca. 3 weeks (Table 7)
quantity: herbicidal effect SETVI (%)
# output: bare number, implied unit %

{"columns": ["molecule", "subjectOfTest", "measureUnit", "quantitativeResult"],
 "data": [
  ["O=C(Nc1nsc2c(=O)n(CC3CCCCC3Cl)cc(Cl)c12)C(F)(F)F (racemic)", "Setaria viridis", "%", 100]
]}

Problem: Look up herbicidal effect SETVI: O=C(Nc1nsc2c(=O)n(CC3CCCCC3Cl)cc(Cl)c12)C(F)F (racemic)
Solution: 100

Problem: Look up herbicidal effect SETVI: Nc1nsc2c(=O)n(CC3CCCCC3)cc(Cl)c12
Solution: 100

Problem: Look up herbicidal effect SETVI: Nc1nsc2c(=O)n(CC3CCCCC3Cl)cc(Cl)c12 (racemic)
Solution: 100
